Task for the reader: assign each of the following compounds its reported IC50.
molecular target: IRAK4 (Homo sapiens); assay: 2-hour 10 μM ATP Biochemical Assay (MesoScale Detection format; IRAK4 phosphorylation of biotin labeled IRAK1 activation loop peptide); conditions: IRAK4 MSD BIOCHEMICAL (10 μM ATP) IC50 (μM), 1 nM IRAK4, 2 hours
Numeric only. Scale: µM

# IC50 of `CCOc1cc2nc(C3CCOCC3)cn2cc1NC(=O)c1ccccn1` = 0.007

// IC50 value for `CC[C@@H]1[C@H](F)C(=O)N[C@@H]1COc1cc2nc(C3CC3)cn2cc1NC(=O)c1cccc(C(F)F)n1` : 0.079

Field IC50 (entry `CCOc1cc2nc(C3CCOCC3)cn2cc1NC(=O)c1ccccc1OC` ) reads 0.005

Lab note: measured IC50 of `COc1cc(NC(=O)c2csc(C)n2)cn2cc(C3CCOCC3)nc12` was 0.026

// IC50 value for CCOc1nc2nc(CC3CCOC3)cn2cc1NC(=O)c1cccc(C(F)(F)F)n1 (single isomer, unassigned) [Example 95] : 0.001

# compound CC(COc1cc2nc(C3CC3)cn2cc1NC(=O)c1cccc(C(F)F)n1)n1ccccc1=O (centres unmarked) ; its IC50 = 0.19

The compound listed as `CCOc1cc2nc(CCC(C)(C)O)cn2cc1NC(=O)c1cccc(C(F)F)n1` has a reported IC50 of 0.001

The recorded IC50 for entry N#CC1CCC(Oc2cc3nc(C4CCOCC4)cn3cc2NC(=O)c2cccc(C(F)F)n2)C1 (centres unmarked) equals 0.001

----------
target: IRAK4 (Homo sapiens, UniProt Q9NWZ3); assay: 2-hour 1 mM ATP IRAK4 Biochemical assay (as above, but with 100 pM IRAK4 and 1 mM ATP); details: IRAK4 MSD BIOCHEMICAL (1 mM ATP) IC50 (μM), 100 pM IRAK4, 2 hours
Property name: IC50 (µM)
Record the value in µM, omitting the unit from your answer.

So for CCO[C@H]1C[C@H](Oc2cc3nc(C4CCOCC4)cn3cc2NC(=O)c2cccc(C(F)F)n2)C1 [Example 190] , the logged IC50 turned out to be 0.001

Lab book: IC50 of COc1cc(NC(=O)c2cccc(C(F)F)n2)cn2cc(C34CC(F)(C3)C4)nc12 [Example 535] noted as 0.05

Per the records, this molecule ( CCOc1nc(C(=O)Nc2cn3cc(C45COC(C)(C4)C5)nc3c(OC)n2)co1 [Example 440] ) has IC50 equal to 0.047

Sample CCOc1cc2nc(C34CC(C(F)F)(C3)C4)cn2cc1NC(=O)c1cccc(C(F)(F)F)n1 [Example 522, 2,2,2-trifluoroacetate] ; IC50 observed: 0.002

----------
Target: IRAK4 (Homo sapiens, UniProt Q9NWZ3)
Sequence (Q9NWZ3 1-460): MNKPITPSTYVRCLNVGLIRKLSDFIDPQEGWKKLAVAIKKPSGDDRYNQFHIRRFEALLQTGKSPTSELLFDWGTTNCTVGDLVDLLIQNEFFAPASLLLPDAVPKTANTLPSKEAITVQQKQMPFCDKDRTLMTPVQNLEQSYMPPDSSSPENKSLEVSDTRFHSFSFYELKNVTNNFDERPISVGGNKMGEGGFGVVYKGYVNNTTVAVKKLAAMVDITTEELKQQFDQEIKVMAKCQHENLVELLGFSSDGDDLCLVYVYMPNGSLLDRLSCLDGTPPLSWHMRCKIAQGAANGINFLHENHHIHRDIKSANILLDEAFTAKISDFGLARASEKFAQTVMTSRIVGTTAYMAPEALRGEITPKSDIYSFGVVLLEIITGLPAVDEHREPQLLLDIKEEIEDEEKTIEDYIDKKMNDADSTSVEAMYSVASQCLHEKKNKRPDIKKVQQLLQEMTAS
Test: 2-hour 1 mM ATP IRAK4 Biochemical assay (as above, but with 100 pM IRAK4 and 1 mM ATP)
Settings: IRAK4 MSD BIOCHEMICAL (1 mM ATP) IC50 (μM), 100 pM IRAK4, 2 hours
Mark Satisfied only when IC50 stays strictly below 0.005 µM. Values equal to the cut-off are Not satisfied.

IN: Determine whether this compound shows IC50 lower than 0.005 µM (ties excluded): CC(C)Oc1nc2nc(C3C4COCC43)cn2cc1NC(=O)c1coc(C(C)C)n1 (stereo not shown)
OUT: Satisfied

IN: Criterion: IC50 strictly below 0.005 µM. Is it met by CC(C)Oc1c(NC(=O)c2coc(C(F)F)n2)cn2cc(C34COC(C)(C3)C4)nc2c1F [Example 430, 2,2,2-trifluoroacetate] ?
OUT: Not satisfied

IN: A record lists `CC(C)Cc1cc2nc(C3CCOCC3)cn2cc1NC(=O)c1cccc(C(F)F)n1` . Is its IC50 below 0.005 µM?
OUT: Satisfied

IN: Check if IC50 falls below 0.005 µM for CCOc1cc2nc(CC3CCOC3)cn2cc1NC(=O)c1ccn(C(F)F)n1 (stereo not shown) .
OUT: Satisfied

IN: Is it true that IC50 reported for `Cc1cc(NC(=O)c2cccc(C(F)F)n2)cn2cc(C34COC(C)(C3)C4)nc12` is less than 0.005 µM?
OUT: Not satisfied

IN: Say whether its IC50 is strictly beneath 0.005 µM. Entry: CC(C)Oc1c(NC(=O)c2cccc3ccnn23)cn2cc(C34COC(C)(C3)C4)nc2c1F [Example 548, 2,2,2-trifluoroacetate]
OUT: Satisfied

----------
biological target: IRAK4 (Homo sapiens); assay: 2-hour 1 mM ATP IRAK4 Biochemical assay (as above, but with 100 pM IRAK4 and 1 mM ATP); conditions: IRAK4 MSD BIOCHEMICAL (1 mM ATP) IC50 (μM), 100 pM IRAK4, 2 hours
Property name: IC50 (µM)
Answer format: numeric, µM implied, no suffix.

get_value(item= `Cc1nn(C)cc1-c1cn2cc(NC(=O)c3cccc(C(F)F)n3)c(OC(C)C)cc2n1` , readout=IC50) returns 0.001

response.value for CC(C)Oc1nc2nc(C34CC(C3)C4)cn2cc1NC(=O)c1cccc(C(F)F)n1 [Example 573, 2,2,2-trifluoroacetate] (field: IC50) = 0.003

The compound listed as `O=C(Nc1cn2cc(C3CCOCC3)nc2cc1OCCOC(F)F)c1cccc(C(F)F)n1` shows IC50 equal to 0.002

For `CCOc1cc2nc(C3CN(CCOC)C3)cn2cc1NC(=O)c1cccc(C(F)F)n1` the compound record lists IC50 as 0.005

----------
target: IRAK4 (Homo sapiens); assay: 2-hour 1 mM ATP IRAK4 Biochemical assay (as above, but with 100 pM IRAK4 and 1 mM ATP); settings: IRAK4 MSD BIOCHEMICAL (1 mM ATP) IC50 (μM), 100 pM IRAK4, 2 hours
Exam item: assign true (1) to entries whose IC50 is below 0.005 µM and false (0) to entries at or above 0.005 µM. Note that a value of exactly 0.005 µM receives false (0).

IN: # check: IC50 < 0.005 µM for CCOCc1cn2cc(NC(=O)c3cccc(C(F)(F)F)n3)c(OCC)cc2n1 [Example 55]
OUT: false (0)

IN: Record COc1c(F)cccc1C(=O)Nc1cn2cc(C34COC(C)(C3)C4)nc2nc1OC(C)C [Example 489, 2,2,2-trifluoroacetate] : is its IC50 strictly below 0.005 µM?
OUT: true (1)

IN: Is IC50 of COc1nc(NC(=O)c2cccc(C(F)F)n2)cn2cc([C@@]34CC[C@@](C)(C3)OC4)nc12 (single isomer, unassigned) [Example 277] strictly below 0.005 µM?
OUT: false (0)

IN: Given CCOc1cc2nc(C34CC(COC)(C3)C4)cn2cc1NC(=O)c1cccc(C(F)(F)F)n1 [Example 523] , is recorded IC50 strictly lower than 0.005 µM?
OUT: true (1)

IN: Field: below-cutoff. Rule: recorded IC50 strictly less than 0.005 µM. Subject: COc1nc(NC(=O)c2cccc(C(F)F)n2)cn2cc(CCOC(F)(F)F)nc12 [Example 563, 2,2,2-trifluoroacetate]
OUT: false (0)

IN: Decide: IC50 of CCOc1cc2nc(C3CCCOC3)cn2cc1NC(=O)c1cccc(C(F)(F)F)n1 (centres unmarked) [Example 112] strictly below 0.005 µM?
OUT: true (1)

IN: hey, is IC50 for COc1c(F)cccc1C(=O)Nc1cc(C)c2nc(C34COC(C)(C3)C4)cn2c1 [Example 407] lower than 0.005 µM or not?
OUT: false (0)

----------
Target: IRAK4 (Homo sapiens)
Sequence (Q9NWZ3 1-460): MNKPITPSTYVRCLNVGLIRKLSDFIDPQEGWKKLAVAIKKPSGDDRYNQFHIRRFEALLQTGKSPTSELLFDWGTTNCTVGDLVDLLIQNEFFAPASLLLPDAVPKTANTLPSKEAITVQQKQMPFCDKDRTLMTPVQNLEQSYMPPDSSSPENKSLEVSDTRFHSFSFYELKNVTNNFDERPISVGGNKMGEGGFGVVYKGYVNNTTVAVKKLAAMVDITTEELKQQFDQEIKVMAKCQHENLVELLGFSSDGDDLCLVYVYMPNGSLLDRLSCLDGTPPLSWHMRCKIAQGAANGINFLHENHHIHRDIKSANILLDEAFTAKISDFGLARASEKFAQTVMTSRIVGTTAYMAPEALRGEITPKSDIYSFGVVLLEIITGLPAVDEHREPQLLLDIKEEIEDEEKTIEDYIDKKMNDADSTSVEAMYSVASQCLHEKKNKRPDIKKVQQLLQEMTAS
Assay: 2-hour 1 mM ATP IRAK4 Biochemical assay (as above, but with 100 pM IRAK4 and 1 mM ATP)
Conditions: IRAK4 MSD BIOCHEMICAL (1 mM ATP) IC50 (μM), 100 pM IRAK4, 2 hours
Property name: IC50 (µM)
Report as a plain number; the unit µM is understood.

Reported IC50 for CCC(C)Oc1c(NC(=O)c2cccnc2OC)cn2cc(C34COC(C)(C3)C4)nc2c1F (single isomer, unassigned) [Example 328] was 0.004

// `COc1nc2nc(C34CC(OC)(C3)C4)cn2cc1NC(=O)c1cccc(C(F)F)n1` : IC50 value = 0.01

Value of measured IC50 for the entry `Cc1cccc(C(=O)Nc2cn3cc(C4CCOCC4)nc3cc2C(F)F)n1` : 0.021

// field: IC50; key: `COCCCc1cn2cc(NC(=O)c3cccc(C(F)F)n3)ccc2n1` ; value = 0.049

Measured IC50 of COc1nc2nc(C3C4COCC43)cn2cc1NC(=O)c1cccc(C(F)F)n1 (stereo not shown) [Example 568, 2,2,2-trifluoroacetate] : 0.009

The recorded IC50 for entry COc1nc(NC(=O)c2cccc3c2OCC3)cn2cc(C34COC(C)(C3)C4)nc12 [Example 445, 2,2,2-trifluoroacetate] equals 0.012

IC50 for `COc1cc2nc(C34COC(C)(C3)C4)cn2cc1NC(=O)c1cccc(C(F)(F)F)n1` is 0.001
